Target: T1, hDPEP3-ECD-His (human, UniProt Q9H4B8 36-463)
T1 construct: also called hDPEP3-His; monomeric hDPEP3-His antigen; not shown: histidine tag
T1 sequence: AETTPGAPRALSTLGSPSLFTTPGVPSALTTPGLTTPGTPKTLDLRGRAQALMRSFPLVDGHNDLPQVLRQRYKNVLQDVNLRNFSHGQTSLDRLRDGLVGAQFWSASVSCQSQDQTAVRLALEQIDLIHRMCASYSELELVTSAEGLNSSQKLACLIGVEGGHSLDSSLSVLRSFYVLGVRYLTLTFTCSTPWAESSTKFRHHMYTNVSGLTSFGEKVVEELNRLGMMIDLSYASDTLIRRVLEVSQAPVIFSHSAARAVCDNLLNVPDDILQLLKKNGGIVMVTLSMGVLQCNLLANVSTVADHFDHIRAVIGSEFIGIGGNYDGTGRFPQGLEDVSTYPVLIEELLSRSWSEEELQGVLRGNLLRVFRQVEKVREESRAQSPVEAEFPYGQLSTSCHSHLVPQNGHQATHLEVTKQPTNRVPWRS
Test: BLI ForteBio RED, 200 nM hDPEP3-His, estimated grade

>  <binder>
SC34.14 (antibody, mouse IgG1, V domains shown) VH: EVQLQQSGPEMVKPGASVKISCKASGYIFTDYYMHWVKQSHGESLDWIGRVNPKKGGTTYNQKFEGKAILTVDKSSSTAYMDLNSLTSEDSAVYYCAMGIYYSYDASFDYWGQGTTLTVSS VL: DIQMTQAPASLSPSVGATVTITCRTSEHIYSYLAWYQQKQGKSPRLLVYNAKTLAEGVSSRFSGSGSGTQFSLQINSLQPEDFGNYYCQHHYDTPYTFGGGTKLEIK

>  <Kd>
< 5 nM

$$$$
>  <binder>
SC34.78 (antibody, mouse IgG1, V domains shown) VH: DVQLQESGRGLVKPSQSLSLTCTVTGYSLTSDFAWNWIRQFPGNKLEWMGYIRYSGTTSYNPSLKSRISITRDTSKNQFFLQLNSVTTEDTATYYCGYGNYGYAMDYWGQGTSVTVSS VL: DIMMTQSPATLSVTPGDRVSLSCRASQSIGAYLHWYQQKSHESPRLLIKYVSQSISGIPSRFSGSGSGSDFTLSINSVEPEDVGVYYCQNGHSFPLTFGAGTKLELK

>  <Kd>
> 10 nM

$$$$

src = patent US20170029530A1
